- Tested on: Saccharomyces cerevisiae
- Measurement Notes: protein stability index of tFT-peptide fusion (C-terminal peptide) (PSI (0-1 scale)); higher = more stable (slower turnover)
- Condition Info: genetic background: das1 deletion; temperature: 30 C
Entries and their measured protein stability index follow.
Could you keep your reply to the number by itself?

Memo: KRRIEEIQMLFE [RAD5 C-terminal 12 aa] , reported protein stability index: 0.708

Form: sequence = TLKKVTQNFYFD [LMO1 C-terminal 12 aa] ; protein stability index = 0.709

Value of protein stability index reported for the sequence LATMILARMSCS [IRA1 C-terminal 12 aa] is 0.682

Quick note, protein stability index for PREILLRLMNDK [PRP6 C-terminal 12 aa] landed at 0.726

Entry MLQYLVFVYIEK [YCR085W C-terminal 12 aa] , protein stability index reported as 0.182

###

- Tested on: Saccharomyces cerevisiae
- Measurement Notes: protein stability index of tFT-peptide fusion (C-terminal peptide) (PSI (0-1 scale)); higher = more stable (slower turnover)
- Condition Info: genetic background: wild type; temperature: 30 C
Short version: protein stability index at least 0.7 is Met, less is Not met.

# count of solved cases: 5
> print(dat)
   ordered.residues  class.label
1      AILSDGLTHWGL          Met
2      GLKNECAIDGVL      Not met
3      LLSRLWPASSSG      Not met
4      TPNLQPLPRNLD          Met
5      NKARVDCNRSRC          Met

Could you tell me if the measured protein stability index of SWGACVDYLGWS reaches 0.7 or more?
Met

Does IVLSRVHLLVGP have a reported protein stability index of at least 0.7?
Not met

###

- System: Saccharomyces cerevisiae
- Measurement Notes: protein stability index of tFT-peptide fusion (C-terminal peptide) (PSI (0-1 scale)); higher = more stable (slower turnover)
- Condition Info: genetic background: wild type; temperature: 30 C
Reported Endpoint: protein stability index
Could you keep your reply to the number by itself?

See these solved cases before continuing.
> print(dat)
   ordered.residues             tested.system        reported.endpoint  observed
1      AGICLRSFRCFW  Saccharomyces cerevisiae  protein stability index     0.672
2      DAVRRNSAWFSF  Saccharomyces cerevisiae  protein stability index     0.677
3      AFRCGGGPGDFA  Saccharomyces cerevisiae  protein stability index     0.651
4      GGEWGDRRKSGV  Saccharomyces cerevisiae  protein stability index     0.647
5      QLRYVGRSISRM  Saccharomyces cerevisiae  protein stability index     0.659

Documented protein stability index of SLFGMACDGGLP : 0.687

Recorded protein stability index (sequence RTPSHPLPHPHS ): 0.677

// protein stability index value for PRFSLFSTDHYY : 0.679

Value of measured protein stability index for the entry IRYEVVDLEPRG : 0.693

Input SYPPLLPQLPPP . Output protein stability index: 0.678

###

Catalogue of sequences with associated protein stability index
- Tested on: Saccharomyces cerevisiae
- Measurement Notes: protein stability index of tFT-peptide fusion (C-terminal peptide) (PSI (0-1 scale)); higher = more stable (slower turnover)
- Condition Info: genetic background: wild type; temperature: 30 C
Provide a numeric answer; units are not to be included.

> print(dat)
   ordered.residues  observed
1      GQGGRAGRAADV     0.653
2      GYFHADYIPLSY     0.747
3      VSYEFHTRVSKN     0.677
4      PSLPFPPSPPPC     0.707
5      QLGALIAHSTTF     0.665

The sequence listed as GGYGRAGRDVGG shows protein stability index equal to 0.655

// field: protein stability index; key: APPPMPLPLIPL ; value = 0.633

Noted for IEITERRQKKIQ : its protein stability index reads 0.699

// recorded protein stability index for DVGFGWGCGVGG : 0.736

get_value(item= ATSFHALPVFTS , readout=protein stability index) returns 0.644

Per the record, RDLGPSAISMTV has protein stability index of 0.628

Data point: LPGPDLLSRMAS ; protein stability index = 0.659

Per the record, PPPPRPASPGSP has protein stability index of 0.622
